Here, each record is paired with measured pIC50 data.
Molecular target: SARS-CoV-2 Beta (B.1.351) variant prefusion stabilized spike trimer protein (UniProt P0DTC2 14-1213)
Assay: ELISA
# reply with the number alone; pIC50 is -log10 of concentration in mol/L

Some solved cases for reference:
1-L10-A (antibody, V domains shown) VH: EVKLEESGGGLVQPGGSMKLSCVASGFTFNNYWMNWVRQSPEKGLEWVAQMRLKSDNYATHYAESVKGRFTISRDDSKSSVYLQMNNLRAEDTGIYYCIEGYWTYWGQGTLVTVSA VL: QIVLTQSPAIMSASLGERVTMTCTASSSVSSSYLHWYQQKPGSSPKLWIYSTSNLASGVPARFSGNGSGTSYSLTISSMEAEDAATYYCLQYHRSPPYTFGGGTKLEIK :: 7.97
8-H5-A (antibody, V domains shown) VH: QVTLKESGPGILQSSQTLSLTCSLSGFSLSTSGMGVSWVRQPSGKGLEWLAHIYWDDDKRYTPSLKSRLTISTDSSRKQVFLKITSVDTADTATYYCARRDLHDYDGWFAYWGQGTLVTVSA VL: DIVMTQSQKFMSTAVGDRVSVTCKASQNVGTNVAWYQQKPGQSPKALIYSASFRYSGVPDRFSGSGSGTDFTLTISNVQSEDLAEYFCQQYNSYPLTFGSGTKLEIK :: 7.77

Now consider the entry below.
QUERY: Provide only the value of recorded pIC50 for 2-H7-A (antibody, V domains shown) VH: QAYLQQSGAELVRPGASVKMSCKASGYTFTGYTMHWVKQTPRQGLEWIGAIYPENGDTSYNQKFKGKATLTVDKSSSTAYMQLSSLTSEDSAVYFCARDGYDVLYGMDYWGQGTSVTVSS VL: DIVLTQSPASLAVSLGQRATISCRASKSVSTSGYSYMHWYQQKPGQPPKLLIYLASNLESGVPARFSGSGSGTDFTLNIHPVEEEDAATYYCQHSRELPWTFGGGTKLDIK
RESULT: 7.97

meta.source: patent US20230115257A1
